The reader will find reported Log10 of Rel to EFC (Feb2021) values listed item by item below.
test system: HIV-1 infection of TZM-bl cells; experiment: HIV-1 infectivity enhancement assay, β-galactosidase luminescence; type: cell-based; conditions: Feb2021; Log10 of infectivity relative to EF-C
No unit in the answer, only the number.

Here is how some substances turned out for Log10 of Rel to EFC (Feb2021).
- SUBSTANCE: "CKIKIQINMW [TM86]"
  Log10 of Rel to EFC (Feb2021): 0.1122
- SUBSTANCE: "KIKQII [msis21]"
  Log10 of Rel to EFC (Feb2021): -2.308
- SUBSTANCE: "CKIKQIINMWQ [MG5a / CK17]"
  Log10 of Rel to EFC (Feb2021): 0.09484
- SUBSTANCE: "CKFKFQFNM [BL3]"
  Log10 of Rel to EFC (Feb2021): 0.09417
- SUBSTANCE: "KIKIQIC [TM112 / CN11]"
  Log10 of Rel to EFC (Feb2021): -0.2164
- SUBSTANCE: "KLKLQLL [TG4 / (KM2)]"
  Log10 of Rel to EFC (Feb2021): -2.156
- SUBSTANCE: "CKIKQII [MG4a]"
  Log10 of Rel to EFC (Feb2021): -1.379
- SUBSTANCE: "QCKFKQFF [CK12]"
  Log10 of Rel to EFC (Feb2021): -1.907

Per the record, KIKIKIQI [TG13] has Log10 of Rel to EFC (Feb2021) of -1.014

* * *

assay: Zeta-potential measurement; assay type: physicochemical; conditions: zeta-potential of the peptide assemblies; mean; Figure 3A source data
Some substances, each annotated with its measured Zeta-Potential / mV.
Give a bare numeral; the unit mV is implied.

Below, 5 substances whose answers are already recorded.
- SUBSTANCE: "QCKFKFQFNM"
  RESULT_UNIT: "mV"
  Zeta-Potential / mV: 15.7
- SUBSTANCE: "PPFHPPPFHP"
  RESULT_UNIT: "mV"
  Zeta-Potential / mV: -15.8
- SUBSTANCE: "QCKFKQFF"
  RESULT_UNIT: "mV"
  Zeta-Potential / mV: 4.94
- SUBSTANCE: "KIKIKIKIWW"
  RESULT_UNIT: "mV"
  Zeta-Potential / mV: 15.4
- SUBSTANCE: "CKIKIQI"
  RESULT_UNIT: "mV"
  Zeta-Potential / mV: 12.8

Quick note, Zeta-Potential / mV for NMWQKIKIQI landed at 8.26

Looking up CQFQFQF , I see its Zeta-Potential / mV listed as -24.8

The reported value for CKIKQIIRGD in terms of Zeta-Potential / mV is 13.2

Form field Zeta-Potential / mV, entry RGEKIKIQINM : 15.3

Kindly note the recorded Zeta-Potential / mV for CEFEFQFNMWQ , which is -34.23

// CEIEIQI : Zeta-Potential / mV value = -26.1

* * *

format: physicochemical; conditions: ThT category; 1 if Rel. ThT >2
Entries and their measured ThT Cat, follow.

For orientation, consider the following solved cases.
- SUBSTANCE: "KIRGKFEKED"
  ThT Cat,: "1 (ThT. Cat is 1, if Rel. ThT >2)"
- SUBSTANCE: "KNERIKNERI"
  ThT Cat,: "0 (ThT-inactive (N-Fold <2))"
- SUBSTANCE: "CEIEIQINMWQ"
  ThT Cat,: "1 (ThT. Cat is 1, if Rel. ThT >2)"
- SUBSTANCE: "RGDKIKIQINM"
  ThT Cat,: "1 (ThT. Cat is 1, if Rel. ThT >2)"
- SUBSTANCE: "KWKWQW"
  ThT Cat,: "0 (ThT-inactive (N-Fold <2))"
- SUBSTANCE: "CKIKQIINM"
  ThT Cat,: "1 (ThT. Cat is 1, if Rel. ThT >2)"

Briefly, ThT Cat, measured for QCKFKFQF : 1 (ThT. Cat is 1, if Rel. ThT >2)

ThT Cat, in this record for CKFKFQFW : 0 (ThT-inactive (N-Fold <2))

GET /value?item= TKTLTKTL &field=ThT Cat, returns 0 (ThT-inactive (N-Fold <2))

Entry KIKIKIQI ; ThT Cat, = 1 (ThT. Cat is 1, if Rel. ThT >2)

According to the records, this substance CKYKYQY displays ThT Cat, of 1 (ThT. Cat is 1, if Rel. ThT >2)
